biological target: ANK1; experiment: pooled miR-30 sensor sort-seq; sequence = guide strand; conditions: shRNA; note: reference of the scale not given here
assay-metric: sensor-assay potency score (higher = more potent)
One number for each entry.

- seq: "TTCTCTTCATCAACATCCCTGG"
  assay-result: -0.331
- seq: "TATCTGTCGAACCACCTTGCGA"
  assay-result: -1.29
- seq: "TAGAATGATTTCTTTGTGCAGA"
  assay-result: -0.0456
- seq: "TCTCTTCTGACCTCTGACCTTC"
  assay-result: -0.43
- seq: "TGGACAAGTCTATCTGTCGAAC"
  assay-result: -1.67

Would you mind giving sensor-assay potency score (higher = more potent) for every sequence in the list below?
1. TGTGGTGTGAAATTGACGCTGG
2. TTGGTGACGGCATTCTCCGGGA
3. TCACTGACTAACACGAAACTGG
4. TTGCAGGTATGAGACAATCGAG

1: 0.797; 2: -0.46; 3: -0.214; 4: -1

The reported measurements were obtained from the OligoGym collection.
